conditions: buffer; pH 7.4; 200.0 µM
readout: solubility kinetic

The recorded solubility kinetic for CCOc1nc(-c2ccccc2)ncc1Oc1ccccc1 is < 0.3 µg/mL

// recorded solubility kinetic for CC1(C)OC(=O)N(CCC(=O)Nc2cccc(F)c2)C1(C)O (configuration not stated) : > 46.5 µg/mL

Recorded solubility kinetic (compound COC(=O)c1sccc1NC(=O)Nc1cc(C)ccc1OC ): 11.1 µg/mL

GET /value?item= Cc1cc(C)nc(SCCC(=O)Nc2ccccc2Cl)n1 &field=solubility kinetic returns > 48.3 µg/mL

Measured solubility kinetic of Cc1cccc(OCC(=O)NCC(C)(C)N2CCOCC2)c1 : > 46 µg/mL

Item: CCOC(=O)C1CCCN(C(=O)COC(=O)c2cccs2)C1 (configuration not stated) | solubility kinetic: 47.6 µg/mL

Sample O=C(Nc1ccccc1)c1cccc(=O)o1 ; solubility kinetic observed: > 32.3 µg/mL

Entry COC(=O)c1c(C)noc1-c1ccc(Cl)cc1 ; solubility kinetic = 1.6 µg/mL

The compound listed as CCCCc1c(C)nc2c(OC)cccc2c1SCC(=O)O has a reported solubility kinetic of > 47.9 µg/mL

Form field solubility kinetic, entry O=C(O)CC1(CC(=O)NCc2cc(F)cc3c2OCOC3)CCCCC1 : > 54.8 µg/mL

What the record says about Cc1ccc(S(=O)(=O)N2CCCN(C)CC2)cc1.Cl : solubility kinetic is > 45.7 µg/mL

Documented solubility kinetic of Cc1onc(-c2ccccc2)c1CNC(=O)Nc1cccc(Cl)c1 : 1.8 µg/mL

----------
conditions: buffer; pH 7.4; 200.0 µM
readout: solubility kinetic (µg/mL)
Provide only the numeric value, understood in µg/mL.

Completed entries (count: 5):
molecule	readout	unitsSymbol	testResult
Cc1ccc(NC(=O)CN2C(=O)S/C(=C\c3ccccn3)C2=O)cc1	solubility kinetic	µg/mL	0.9
COc1ccc(OC)c(NC(=O)C2=C(C)NC(=O)NC2c2cccs2)c1 (stereo not given)	solubility kinetic	µg/mL	25.3
c1ccc(NC(c2ccccc2)c2ccncc2)cc1 (stereo not given)	solubility kinetic	µg/mL	25.5
CC(=O)c1c(C)nc(-c2ccccc2)nc1NC(=O)Cc1ccccc1	solubility kinetic	µg/mL	11
CCc1sc(C(=O)NCc2ccccc2)cc1C	solubility kinetic	µg/mL	28.7

Note to self: solubility kinetic recorded for O=C(/C=C/c1cccc(F)c1)OCC(=O)c1ccc[nH]1 was 7.5

----------
conditions: buffer; pH 7.4; 200.0 µM
Rule: solubility kinetic under 8 µg/mL gives NOT MET, otherwise MET.

compound	answerLabel
Cc1ccc(O)c(NC(=O)c2cc(-c3ccco3)on2)c1	NOT MET
O=S(=O)(c1cccs1)N1CCC2(CC1)OCCO2	MET

Challenge: Is reported solubility kinetic greater than or equal to 8 µg/mL here: CCCC(=O)N1CCC(CCC(=O)NC2CC2)CC1
Response given: MET

Challenge: Exam item: decide whether the reported solubility kinetic for O=C(Nc1nnc(C2CC2)s1)C1COc2ccccc2O1 (stereo not given) is at least 8 µg/mL.
Response given: MET

Challenge: Check the entry COc1ccc(NC(=O)C2CCCO2)c(OC)c1 (stereo not given) : does solubility kinetic equal or exceed 8 µg/mL?
Response given: MET

Challenge: Quick check, solubility kinetic >= 8 µg/mL? CC(=O)Nc1ccccc1OCC(=O)NCCC1=CCCCC1
Response given: MET

// provenance: PubChem BioAssay AID1996
